System: DLD-1-BAG human colon carcinoma cells expressing as activated K-ras gene
Test: Cell Mat Assay, DLD-1 tumor cells
Type: cell-based
Conditions: Mat assay
Please provide measured pIC50 for the entries that follow.
Answers are plain numbers, as −log10 of the molar value.

Study these solved cases before continuing.
O=C(Cc1cc[n+]([O-])cc1)N1CCC(C2c3ccc(Cl)c(Br)c3CCc3cc(Br)cnc32)CC1 (single isomer, unassigned) : 5.20
NC(=O)N1CCC(CC(=O)N2CCN(C3c4ncc(Br)cc4CCc4cc(Cl)cc(Br)c43)CC2)CC1 (single isomer, unassigned) [Example 12B] : 5.51

From here, focus on the item given below.
Give the measured pIC50 of O=C(Cc1cc[n+]([O-])cc1)N1CCN([C@@H]2c3ncc(Br)cc3CCc3cc(Cl)cc(Br)c32)CC1 [Example 11B] . 5.10

----------
Please provide measured pIC50 for the entries that follow.
Biological target: farnesyl protein transferase (FPT) (Rattus norvegicus, UniProt Q02293+Q04631)
Construct: were partially purified from rat brain by ammonium sulfate fractionation followed by Q-Sepharose; from tissue; host or cells: rat brain
Experiment: In vitro enzyme assay: inhibition of farnesyl protein transferase (transfer of [3H]farnesyl to Ras-CVLS)
Type: biochemical
Details: Table 1; partially purified rat brain FPT, Ras-CVLS; read-out: FPT IC50
Counter-ions that a name gives are not always drawn.
One number for each entry, as −log10 of the molar value.

NC(=O)N1CCC(CC(=O)N2CCC(C3c4ccc(Cl)c(Br)c4CCc4cc(Br)cnc43)CC2)CC1 (single isomer, unassigned) : 8.30

Each compound below has a reported value. Please supply its pIC50.
1. O=C(Cc1cc[n+]([O-])cc1)N1CCN(C2c3ccc(Cl)c(Br)c3CCc3cc(Br)cnc32)CC1 (stereo not shown) [5 • HCl salt]
2. NC(=O)N1CCC(CC(=O)N2CCN([C@H]3c4ccc(Cl)c(Br)c4CCc4cc(Br)cnc43)CC2)CC1
3. O=C(Cc1cc[n+]([O-])cc1)N1CCN(C2c3ncc(Br)cc3CCc3cc(Cl)cc(Br)c32)CC1 (racemic)
4. NC(=O)N1CCC(CC(=O)N2CCC(C3c4ccc(Cl)cc4CCc4cc(Br)cnc43)CC2)CC1 (stereo not shown)

1. 8.42
2. 8.51
3. 8.70
4. 7.34

Each compound below has a reported value. Please supply its pIC50.
1. NC(=O)N1CCC(CC(=O)N2CCN([C@H]3c4ccc(Cl)cc4CCc4cc(Br)cnc43)CC2)CC1 [Example 17A]
2. O=C(Cc1cc[n+]([O-])cc1)N1CCC(C2c3ccc(Cl)c(Br)c3CCc3cc(Br)cnc32)CC1 (single isomer, unassigned) [Example 14]
3. O=C(Cc1cc[n+]([O-])cc1)N1CCC(C2c3ccc(Cl)c(Br)c3CCc3cc(Br)cnc32)CC1 (single isomer, unassigned) [Example 14A]
4. O=C(Cc1cc[n+]([O-])cc1)N1CCC([C@H]2c3ncc(Br)cc3CCc3cc(Cl)cc(Br)c32)CC1
5. NC(=O)N1CCC(CC(=O)N2CCN([C@@H]3c4ccc(Cl)cc4CCc4cc(Br)cnc43)CC2)CC1
6. O=C(Cc1cc[n+]([O-])cc1)N1CCN(C2c3ncc(Br)cc3CCc3cc(Cl)cc(F)c32)CC1 (stereo not shown)

1: 7.32; 2: 7.21; 3: 8.59; 4: 8.89; 5: 7.37; 6: 8.08

----------
Please provide measured pIC50 for the entries that follow.
Target: farnesyl protein transferase (FPT) (Rattus norvegicus, UniProt Q02293+Q04631)
Construct: were partially purified from rat brain by ammonium sulfate fractionation followed by Q-Sepharose; from tissue; host or cells: rat brain
Test: In vitro enzyme assay: inhibition of farnesyl protein transferase (transfer of [3H]farnesyl to Ras-CVLS)
Assay type: biochemical
Conditions: Table 2, comparison with GGPT; read-out: ENZYME INHIBITION FPT IC50
One number for each entry, as −log10 of the molar value.

Each compound below has a reported value. Please supply its pIC50.
1. NC(=O)N1CCC(CC(=O)N2CCC(C3c4ccc(Cl)c(Br)c4CCc4cc(Br)cnc43)CC2)CC1 (single isomer, unassigned) [Example 13]
2. O=C(Cc1cc[n+]([O-])cc1)N1CCC(C2c3ccc(Cl)c(Br)c3CCc3cc(Br)cnc32)CC1 (single isomer, unassigned) [Example 14A]

1. 8.30
2. 8.59

----------
Target: geranylgeranyl protein transferase (GGPT) I (Rattus norvegicus, UniProt P53610+Q04631)
Construct: geranylgeranyl protein transferase (GGPT) I were partially purified from rat brain; from tissue; host or cells: rat brain
Assay: In vitro enzyme assay: inhibition of geranylgeranyl protein transferase I (Ras-CVLL as acceptor)
Format: biochemical
Settings: Table 2; Ras-CVLL as isoprenoid acceptor
Method: • 1. In vitro enzyme assays: Inhibition of farnesyl protein transferase and geranylgeranyl protein transferase. […] Filter mats were washed once with 6% TCA, 2% SDS and radioactivity was measured in a Wallac 1204 Betaplate BS liquid scintillation counter. Percent inhibition was calculated relative to the DMSO vehicle control. […]
readout.kind: IC50

O=C(Cc1cc[n+]([O-])cc1)N1CCC(C2c3ccc(Cl)c(Br)c3CCc3cc(Br)cnc32)CC1 (single isomer, unassigned) [Example 14A] : > 62 µM
O=C(Cc1cc[n+]([O-])cc1)N1CCC(=C2c3ncc(Br)cc3CCc3cc(Cl)cc(Br)c32)CC1 (racemic) [Example 7] : > 300 µM
O=C(Cc1cc[n+]([O-])cc1)N1CCN([C@@H]2c3ccc(Cl)cc3CCc3cc(Br)cnc32)CC1 [Example 16A] : > 38 µM

Each molecule below has a reported value. Please supply its IC50.
1. O=C(Cc1cc[n+]([O-])cc1)N1CCC(=C2c3ncc(Br)cc3CCc3cc(Cl)cc(Br)c32)CC1 (single isomer, unassigned) [Example 7B]
2. O=C(Cc1cc[n+]([O-])cc1)N1CCN([C@H]2c3ccc(Cl)cc3CCc3cc(Br)cnc32)CC1 [Example 16B]
3. NC(=O)N1CCC(CC(=O)N2CCC(C3c4ccc(Cl)c(Br)c4CCc4cc(Br)cnc43)CC2)CC1 (single isomer, unassigned)
4. O=C(Cc1cc[n+]([O-])cc1)N1CCN([C@H]2c3ccc(Cl)c(Br)c3CCc3cc(Br)cnc32)CC1
5. O=C(Cc1cc[n+]([O-])cc1)N1CCC(=C2c3ccc(Cl)c(Br)c3CCc3cc(Br)cnc32)CC1

1: > 66 µM; 2: > 76 µM; 3: > 63 µM; 4: > 66 µM; 5: > 300 µM

----------
System: Normal human HEPM fibroblasts
Test: Cell Mat Assay, normal cell mat
Type: cell-based
Conditions: normal monolayer
pIC50: −log10 of the molar value.
readout.kind: pIC50

Study these solved cases before continuing.
NC(=O)N1CCC(CC(=O)N2CCC(=C3c4ncc(Br)cc4CCc4cc(Cl)cc(Br)c43)CC2)CC1 (single isomer, unassigned) : < 4.60
O=C(Cc1cc[n+]([O-])cc1)N1CCN([C@@H]2c3ncc(Br)cc3CCc3cc(Cl)cc(Br)c32)CC1 [Example 11B] : < 4.60
O=C(Cc1cc[n+]([O-])cc1)N1CCC(=C2c3ncc(Br)cc3CCc3cc(Cl)cc(Br)c32)CC1 (single isomer, unassigned) : < 4.60
O=C(Cc1cc[n+]([O-])cc1)N1CCC(C2c3ccc(Cl)c(Br)c3CCc3cc(Br)cnc32)CC1 (single isomer, unassigned) : < 4.60
NC(=O)N1CCC(CC(=O)N2CCN(C3c4ncc(Br)cc4CCc4cc(Cl)cc(Br)c43)CC2)CC1 (single isomer, unassigned) [Example 12B] : < 4.60
NC(=O)N1CCC(CC(=O)N2CCC([C@@H]3c4ncc(Br)cc4CCc4cc(Cl)cc(Br)c43)CC2)CC1 [Example 10A] : 5.10

Each molecule below has a reported value. Please supply its pIC50.
1. NC(=O)N1CCC(CC(=O)N2CCC(C3c4ncc(Br)cc4CCc4cc(Cl)cc(Br)c43)CC2)CC1 (centres unmarked) [Example 10]
2. NC(=O)N1CCC(CC(=O)N2CCC(C3c4ncc(Br)cc4CCc4cc(Cl)cc(Br)c43)CC2)CC1 (centres unmarked) [Example 10B]

1. < 4.60
2. < 4.60

----------
Target: farnesyl protein transferase (FPT) (Rattus norvegicus, UniProt Q02293+Q04631)
Construct: were partially purified from rat brain by ammonium sulfate fractionation followed by Q-Sepharose; from tissue; host or cells: rat brain
Experiment: In vitro enzyme assay: inhibition of farnesyl protein transferase (transfer of [3H]farnesyl to Ras-CVLS)
Assay type: biochemical
Settings: Table 2, comparison with GGPT; read-out: ENZYME INHIBITION FPT IC50
readout.kind: IC50 (nM)
Answers are plain numbers, in nM.

Study these solved cases before continuing.
O=C(Cc1cc[n+]([O-])cc1)N1CCC(=C2c3ncc(Br)cc3CCc3cc(Cl)cc(Br)c32)CC1 (racemic) [Example 7] : 12
O=C(Cc1cc[n+]([O-])cc1)N1CCN([C@H]2c3ccc(Cl)c(Br)c3CCc3cc(Br)cnc32)CC1 : 2.3
O=C(Cc1cc[n+]([O-])cc1)N1CCC([C@H]2c3ncc(Br)cc3CCc3cc(Cl)cc(Br)c32)CC1 : 1.3
NC(=O)N1CCC(CC(=O)N2CCC(C3c4ncc(Br)cc4CCc4cc(Cl)cc(Cl)c43)CC2)CC1 (single isomer, unassigned) : 3.1

Give the measured IC50 of NC(=O)N1CCC(CC(=O)N2CCC(C3c4ccc(Cl)cc4CCc4cc(Br)cnc43)CC2)CC1 (centres unmarked) . 46

The reported measurements were obtained from patent EP1019392B1.
